Attribution: ChEMBL document CHEMBL1137400

Provide the recorded Ki for the entries that follow.
# assay system: D(1B) dopamine receptor (Homo sapiens)
# Sequence (P21918 whole entry): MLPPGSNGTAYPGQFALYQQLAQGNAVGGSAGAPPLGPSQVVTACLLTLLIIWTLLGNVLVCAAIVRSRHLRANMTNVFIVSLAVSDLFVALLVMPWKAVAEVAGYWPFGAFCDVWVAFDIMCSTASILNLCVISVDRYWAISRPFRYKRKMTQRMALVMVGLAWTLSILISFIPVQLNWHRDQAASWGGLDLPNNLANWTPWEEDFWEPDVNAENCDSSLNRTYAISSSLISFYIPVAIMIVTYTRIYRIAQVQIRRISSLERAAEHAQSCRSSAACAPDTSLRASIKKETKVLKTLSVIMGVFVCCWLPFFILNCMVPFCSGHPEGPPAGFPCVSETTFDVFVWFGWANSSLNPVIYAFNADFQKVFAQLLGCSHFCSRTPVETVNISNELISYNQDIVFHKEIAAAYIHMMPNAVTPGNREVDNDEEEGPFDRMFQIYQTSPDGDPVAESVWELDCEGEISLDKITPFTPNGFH
# experiment description: Activity at human D5 dopamine receptor expressed in HEK293 cells by calcium fluorescence assay
# Assay type: functional, cell-based
One number for each entry, in nM.

[
  {
    "structure smiles": "CN1CCCc2ccccc2Cc2[nH]c3ccccc3c2CC1",
    "display unit": "nM",
    "Ki": 2.8
  }
]

Please examine the following record next.
Which value of Ki has been reported for CN1CCCc2c([nH]c3ccccc23)Cc2ccccc2CC1 in the records?
71.6

---

# assay system: D(1A) dopamine receptor (Homo sapiens, UniProt P21728)
# Sequence (P21728 whole entry): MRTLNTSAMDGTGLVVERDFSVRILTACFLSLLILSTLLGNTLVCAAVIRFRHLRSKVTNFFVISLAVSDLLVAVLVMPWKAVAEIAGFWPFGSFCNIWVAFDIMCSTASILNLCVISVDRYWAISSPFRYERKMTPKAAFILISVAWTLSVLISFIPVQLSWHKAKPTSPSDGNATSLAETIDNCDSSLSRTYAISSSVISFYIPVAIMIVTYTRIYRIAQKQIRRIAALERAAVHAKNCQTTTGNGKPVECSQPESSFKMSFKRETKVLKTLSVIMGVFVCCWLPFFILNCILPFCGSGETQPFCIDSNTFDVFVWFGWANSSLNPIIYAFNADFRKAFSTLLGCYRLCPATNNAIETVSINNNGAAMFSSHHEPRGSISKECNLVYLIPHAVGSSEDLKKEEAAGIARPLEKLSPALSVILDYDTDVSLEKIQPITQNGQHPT
# experiment description: Displacement of [3H]SCH 23390 from human D1 dopamine receptor expressed in HEK293 cells
# Format: cell-based
Provide the recorded pKi for the entries that follow.
One number for each entry, as −log10 of the molar value.

For every listed record, write down its pKi.
1. CN1CCCc2ccccc2Cc2[nH]c3ccccc3c2CC1
2. CN1CCCc2c([nH]c3ccccc23)Cc2ccccc2CC1

1: 8.66; 2: 6.79
